molecular target: eIF2Bα (Homo sapiens); construct: made in house; host or cells: E. coli BL21(DE3); assay: MIDAS (mass spectrometry integrated with equilibrium dialysis) metabolite binding screen; settings: MIDAS metabolite binding screen with eIF2Bα; sheet "eIF2Ba"
Sequence (Q14232 whole entry): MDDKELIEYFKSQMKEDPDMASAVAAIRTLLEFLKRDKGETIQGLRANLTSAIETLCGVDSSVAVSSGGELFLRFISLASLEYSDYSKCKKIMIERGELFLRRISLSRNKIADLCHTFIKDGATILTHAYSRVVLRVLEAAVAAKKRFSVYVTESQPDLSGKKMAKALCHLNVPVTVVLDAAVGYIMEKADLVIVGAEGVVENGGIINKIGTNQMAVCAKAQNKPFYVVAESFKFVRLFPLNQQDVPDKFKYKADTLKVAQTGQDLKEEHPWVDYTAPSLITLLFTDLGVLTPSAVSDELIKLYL
Peptide text beside a SMILES is read from it.
hey, just use 1 (yes) if measured log2(corrected fold change) is less than -0.01, otherwise 0 (no)

In [3]: df
Out[3]:
                                    compound        target_of_assay  category
 0                          N[C@H](CO)C(=O)O  eIF2Bα (Homo sapiens)   1 (yes)
 1  C[n+]1cccc(C(N)=O)c1 [1-Methylnicotinamide]  eIF2Bα (Homo sapiens)    0 (no)
 2  CCC(C)C(O)C(=O)O (stereo not shown) [2-Hydroxy-3-methylpentanoic acid]  eIF2Bα (Homo sapiens)   1 (yes)
 3            NC(CP(=O)(O)O)C(=O)O (racemic)  eIF2Bα (Homo sapiens)   1 (yes)
 4                       CC(C)CC(=O)NCC(=O)O  eIF2Bα (Homo sapiens)   1 (yes)
 5                CN(CC(=O)O)C(=N)NP(=O)(O)O  eIF2Bα (Homo sapiens)   1 (yes)
 6  O=c1ccn([C@H]2C[C@H](O)[C@@H](CO)O2)c(=O)[nH]1  eIF2Bα (Homo sapiens)    0 (no)
 7  O=C(CO)[C@@H](O)[C@H](O)[C@H](O)[C@H](O)COP(=O)(O)O [D-Sedoheptulose 7-phosphate]  eIF2Bα (Homo sapiens)   1 (yes)
 8  CCCC(=O)SCCNC(=O)CCNC(=O)[C@H](O)C(C)(C)COP(=O)(O)OP(=O)(O)OC[C@H]1O[C@@H](n2cnc3c(N)ncnc32)[C@H](O)[C@@H]1OP(=O)(O)O  eIF2Bα (Homo sapiens)    0 (no)
 9  Nc1nc2c(ncn2[C@@H]2O[C@H](COP(=O)(O)OP(=O)(O)O)[C@@H](O)[C@H]2O)c(=O)[nH]1 [Guanosine 5-diphosphate]  eIF2Bα (Homo sapiens)   1 (yes)
10  OC[C@H]1O[C@H](O[C@H]2[C@H](O)[C@@H](O)[C@H](O)O[C@@H]2CO)[C@H](O)[C@@H](O)[C@@H]1O  eIF2Bα (Homo sapiens)    0 (no)
11                     CC(C)C[C@@H](O)C(=O)O  eIF2Bα (Homo sapiens)   1 (yes)
12                                      NCCO  eIF2Bα (Homo sapiens)    0 (no)
13  Nc1ncnc2c1ncn2[C@@H]1O[C@H](COP(=O)(O)OS(=O)(=O)O)[C@@H](OP(=O)(O)O)[C@H]1O [3-Phosphoadenosine 5-phosphosulfate]  eIF2Bα (Homo sapiens)    0 (no)
14  O=C(O)CC(O)CC(=O)O [3-hydroxypentanedioic acid]  eIF2Bα (Homo sapiens)    0 (no)
15  O=C(O)C(O)CO (stereo not shown) [2,3-Dihydroxypropanoic acid]  eIF2Bα (Homo sapiens)    0 (no)
16  Nc1nc2c(ncn2[C@@H]2O[C@@H]3COP(=O)(O)O[C@H]3[C@H]2O)c(=O)[nH]1  eIF2Bα (Homo sapiens)    0 (no)
17           O=C(O)C(=O)CO [Hydroxypyruvate]  eIF2Bα (Homo sapiens)   1 (yes)
18  CC(=O)N[C@@H](CC(=O)O)C(=O)N[C@@H](CCC(=O)O)C(=O)O [N-Acetyl-Asp-Glu] (Ac-Asp-Glu-OH)  eIF2Bα (Homo sapiens)    0 (no)
19                             C[C@@H](O)C=O  eIF2Bα (Homo sapiens)   1 (yes)
20  O=C(O)CC[C@@H](O)C(=O)O [D-Hydroxyglutaric acid]  eIF2Bα (Homo sapiens)    0 (no)
21  Nc1ncnc2c1ncn2[C@H]1C[C@H](O)[C@@H](COP(=O)(O)OP(=O)(O)O)O1 [Deoxyadenosine diphosphate]  eIF2Bα (Homo sapiens)   1 (yes)
22  OC[C@H]1O[C@H](OC[C@H]2O[C@H](O[C@]3(CO)O[C@H](CO)[C@@H](O)[C@@H]3O)[C@H](O)[C@@H](O)[C@@H]2O)[C@H](O)[C@@H](O)[C@H]1O  eIF2Bα (Homo sapiens)   1 (yes)
23  O=c1ccn([C@@H]2O[C@H](CO)[C@@H](O)[C@H]2O)c(=O)[nH]1  eIF2Bα (Homo sapiens)    0 (no)
24                             CCCCCCCC(=O)O  eIF2Bα (Homo sapiens)    0 (no)
25  O=C1O[C@H]2[C@H](OC(O)[C@@H]2O)[C@@H]1O (stereo partly shown)  eIF2Bα (Homo sapiens)    0 (no)
26                    O=CC(=O)O [Glyoxylate]  eIF2Bα (Homo sapiens)   1 (yes)
27                   NC(CCS)C(=O)O (racemic)  eIF2Bα (Homo sapiens)    0 (no)
28  CC(=O)NC1C(OP(=O)(O)OP(=O)(O)OCC2OC(n3ccc(=O)[nH]c3=O)C(O)C2O)OC(CO)C(O)C1O (stereo not shown)  eIF2Bα (Homo sapiens)   1 (yes)
29      O=C(O)CC(C(=O)O)C(O)C(=O)O (racemic)  eIF2Bα (Homo sapiens)   1 (yes)
30  CC(=O)N[C@H]1[C@H]([C@H](O)[C@H](O)CO)O[C@](OP(=O)(O)OC[C@H]2O[C@@H](n3ccc(N)nc3=O)[C@H](O)[C@@H]2O)(C(=O)O)C[C@@H]1O  eIF2Bα (Homo sapiens)   1 (yes)
31                          CC(C(=O)O)C(=O)O  eIF2Bα (Homo sapiens)   1 (yes)
32  O=C(O)[C@@H](O)[C@@H](O)[C@H](O)[C@@H](O)C(=O)O  eIF2Bα (Homo sapiens)   1 (yes)

====

biological target: eIF2Bα (Homo sapiens); construct: made in house; host or cells: E. coli BL21(DE3); assay: MIDAS (mass spectrometry integrated with equilibrium dialysis) metabolite binding screen; settings: MIDAS metabolite binding screen with eIF2Bα; sheet "eIF2Ba"
Assign a class from recorded log2(corrected fold change); defined classes: interval 1 (below -0.03), interval 2 (-0.03 to below 0.003), interval 3 (0.003 or more)

compound	category
OC[C@H]1OC(O)[C@@H](O)[C@@H](O)[C@@H]1O (stereo partly drawn) [D-Mannose]	interval 2
O=C[C@H](O)[C@H](O)[C@H](O)CO [D-Ribose]	interval 1
CC(C)(COP(=O)(O)OP(=O)(O)OC[C@H]1O[C@@H](n2cnc3c(N)ncnc32)[C@H](O)[C@@H]1OP(=O)(O)O)[C@@H](O)C(=O)NCCC(=O)NCCS [Coenzyme A]	interval 3
CC(=O)N[C@@H](CCC(=O)O)C(=O)O [N-Acetyl-L-glutamic acid]	interval 3
N[C@@H](CCSC[C@H](N)C(=O)O)C(=O)O [L-Cystathionine]	interval 1
O=C1O[C@H](CO)[C@@H](O)[C@H](O)[C@H]1O [Glucono delta-lactone]	interval 3
O=C(O)CCO [3-Hydroxypropionic acid]	interval 2
NC(=O)c1ccc[n+]([C@@H]2O[C@H](COP(=O)([O-])OP(=O)(O)OC[C@H]3O[C@@H](n4cnc5c(N)ncnc54)[C@H](O)[C@@H]3O)[C@@H](O)[C@H]2O)c1 [Nicotinamide adenine dinucleotide]	interval 1
OC[C@H]1O[C@@H](O[C@H]2[C@H](O)[C@@H](O)[C@H](O)O[C@@H]2CO)[C@H](O)[C@@H](O)[C@H]1O [D-Lactose]	interval 2
O=C1O[C@H]([C@@H](O)CO)C(O)=C1O [Ascorbate]	interval 3
Nc1ncnc2c1ncn2[C@H]1C[C@H](O)[C@@H](COP(=O)(O)O)O1 [Deoxyadenosine monophosphate]	interval 1
C[C@@H](O)C(=O)SC[C@H](NC(=O)CC[C@H](N)C(=O)O)C(=O)NCC(=O)O [S-Lactoylglutathione]	interval 1
O=C(O)CNC(=O)Cc1ccc(O)cc1 [4-Hydroxyphenylacetylglycine]	interval 2
CC(=O)N[C@@H](CCCCN)C(=O)O [Nalpha-Acetyl-L-lysine]	interval 1
Nc1ccn([C@@H]2O[C@H](COP(=O)(O)OP(=O)(O)OCC(O)CO)[C@@H](O)[C@H]2O)c(=O)n1 (stereo partly shown) [CDP-Glycerol]	interval 2
O=C1O[C@H]([C@@H](O)CO)[C@H](O)[C@@H]1O [L-Gulonic acid gamma-lactone]	interval 3

====

Molecular target: eIF2Bα (Homo sapiens)
Construct: made in house; host or cells: E. coli BL21(DE3)
Experiment: MIDAS (mass spectrometry integrated with equilibrium dialysis) metabolite binding screen
Settings: MIDAS metabolite binding screen with eIF2Bα; sheet "eIF2Ba"
Method: Metabolites were combined into four defined screening pools. […] To the reverse side, 300 μL of 50 μM per metabolite pool was aliquoted and sealed (metabolite chamber). Loaded dialysis plates were placed in the dark at 4 °C on a rotating shaker (120 rpm) and incubated for 40 h. Post-dialysis, metabolites were isolated from each chamber by cold methanol extraction. Each sample was analyzed in technical triplicate by FIA-MS on a SCIEX X500R QTOF MS with interspersed blanks injections. […]

molecule	target.of.assay	log2(corrected fold change)
C[C@H](O)[C@@H](O)[C@@H](O)[C@H](O)C(=O)O	eIF2Bα (Homo sapiens)	-0.02256
CC(C)C[C@H](N)C(=O)O	eIF2Bα (Homo sapiens)	-0.00688
Nc1ccn([C@@H]2O[C@H](COP(=O)(O)OP(=O)(O)O)[C@@H](O)[C@H]2O)c(=O)n1 [Cytidine 5-diphosphate]	eIF2Bα (Homo sapiens)	0.02612
OC[C@H]1O[C@@H](O[C@H]2[C@H](O)[C@@H](O)[C@H](O)O[C@@H]2CO)[C@H](O)[C@@H](O)[C@@H]1O	eIF2Bα (Homo sapiens)	-0.03103
O=C(O)C(O)c1ccc(O)c(O)c1 (racemic) [DL-3,4-Dihydroxymandelic acid]	eIF2Bα (Homo sapiens)	-0.05412
O=C(O)CCC(=O)C(=O)O	eIF2Bα (Homo sapiens)	0.06742
CC(C)(CO[P@@](=O)(O)O[P@@](=O)(O)OC[C@H]1O[C@@H](n2cnc3c(N)ncnc32)[C@H](O)[C@@H]1OP(=O)(O)O)[C@@H](O)C(=O)NCCC(=O)NCCSC(=O)CC(=O)O	eIF2Bα (Homo sapiens)	-0.02331
CCC(C)C(=O)NCC(=O)O (centres unmarked)	eIF2Bα (Homo sapiens)	-0.07333
